Attribution: PubChem BioAssay AID179

- Tested on: CEM cells HIV-1 protection, formazan growth assay
- EXPERIMENT_NOTES: NCI AIDS Antiviral Assay;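 active = compounds giving half or more protection of infected cells from virus-caused growth loss, again on retest; inactive = the rest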
Possible outcomes: Y for active, N for inactive

# COMPOUND, SUBJECT_OF_TEST, ASSIGNED_LABEL
rows = [
    ("CCCCCCCCCCCCCCCC(=O)OC1C(O)C(CO)OC(OC)C1NC(=O)N(CCCl)N=O (stereo unspecified)", "CEM cells HIV-1 protection, formazan growth assay", "N"),
    ("CC(Nc1cccc(Cl)c1)c1ccncc1 (stereo unspecified)", "CEM cells HIV-1 protection, formazan growth assay", "N"),
    ("CC(O)CN1C(=O)C2C3C=CC(C3)C2C1=O (stereo unspecified)", "CEM cells HIV-1 protection, formazan growth assay", "N"),
    ("CCOC(=O)N1CCN(c2c(C)nc(C)[nH]c2=O)CC1", "CEM cells HIV-1 protection, formazan growth assay", "N"),
    ("N=c1ncn(Cc2ccccc2)c2nc[nH]c12", "CEM cells HIV-1 protection, formazan growth assay", "N"),
    ("Cc1cc(Cl)ccc1NC(=O)CCCC(=O)C1C/C(=N/O)CC/C1=N\\O (stereo unspecified)", "CEM cells HIV-1 protection, formazan growth assay", "N"),
    ("O=S(=O)(SCCCCSS(=O)(=O)c1ccc(Cl)cc1)c1ccc(Cl)cc1", "CEM cells HIV-1 protection, formazan growth assay", "N"),
    ("O=C(O)C1(C(=O)O)CC2C3C=CC(C3)C2C1 (stereo unspecified)", "CEM cells HIV-1 protection, formazan growth assay", "N"),
    ("CCOP(=O)(OCC)C(Nc1cccc(F)c1)c1ccccc1 (stereo unspecified)", "CEM cells HIV-1 protection, formazan growth assay", "N"),
    ("CC1OC(OC2C(Oc3cc(O)c4c(c3)O[C@H](c3ccc(O)cc3)CC4=O)OC(CO)C(O)C2O)C(O)C(O)C1O (stereo partly specified)", "CEM cells HIV-1 protection, formazan growth assay", "N"),
    ("CN(C)C(=O)ON=C1c2ccccc2-c2ccccc21", "CEM cells HIV-1 protection, formazan growth assay", "N"),
    ("COc1nn(Cc2ccccc2F)c2ccc([N+](=O)[O-])cc12", "CEM cells HIV-1 protection, formazan growth assay", "N"),
    ("C[Si](C)(C)C#CC#C[Si](C)(C)C.[C-]#[O+].[C-]#[O+].[C-]#[O+].[C-]#[O+].[C-]#[O+].[C-]#[O+].[C-]#[O+].[C-]#[O+].[C-]#[O+].[C-]#[O+].[C-]#[O+].[C-]#[O+].[Co].[Co].[Co].[Co]", "CEM cells HIV-1 protection, formazan growth assay", "N"),
    ("COc1ccc(C)cc1NC(=O)C(Br)C(Br)C(=O)O (stereo unspecified)", "CEM cells HIV-1 protection, formazan growth assay", "N"),
    ("CCOC(=O)c1c2ccc(/C=C/c3ccccc3)ccc-2c(C(=O)OCC)c1N", "CEM cells HIV-1 protection, formazan growth assay", "N"),
    ("C=CCn1c(-c2ccc([N+](=O)[O-])cc2)csc1=N", "CEM cells HIV-1 protection, formazan growth assay", "N"),
    ("COc1c2c(cc3c1OCO3)C13C=CC(OC)CC1N(CC3)C2 (stereo unspecified)", "CEM cells HIV-1 protection, formazan growth assay", "N"),
    ("Cc1cc(C(=O)O)c(C)cc1SSc1cc(C)c(C(=O)O)cc1C", "CEM cells HIV-1 protection, formazan growth assay", "Y"),
    ("COc1ccc(OC)c(C(Cc2ccnc3ccccc23)Cc2ccnc3ccccc23)c1", "CEM cells HIV-1 protection, formazan growth assay", "N"),
    ("CC1C2CC3(c4ccccc4)CC(/C2=N\\O)/C(=N/O)C1/C3=C\\O (stereo unspecified)", "CEM cells HIV-1 protection, formazan growth assay", "N"),
]
